TARGET_UNDER_TEST: Neutrophil elastase (Homo sapiens)
Sequence (P08246 whole entry): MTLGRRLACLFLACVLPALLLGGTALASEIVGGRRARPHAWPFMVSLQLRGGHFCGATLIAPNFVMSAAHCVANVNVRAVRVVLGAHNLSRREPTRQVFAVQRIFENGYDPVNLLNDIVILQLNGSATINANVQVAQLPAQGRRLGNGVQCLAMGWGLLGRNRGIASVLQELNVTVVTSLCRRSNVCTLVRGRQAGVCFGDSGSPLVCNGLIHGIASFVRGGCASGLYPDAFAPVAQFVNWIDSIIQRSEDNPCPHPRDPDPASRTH
ASSAY_PROTOCOL: Compound was tested for its inhibitory effect against Human leukocyte elastase (HLE)
MEASURED_PROPERTY: pKi
// scale note: pKi = -log10(conc_M); give the bare number

Recorded result, CC1=C(C(=O)OCc2ccccc2)N2C(=O)C[C@H]2S1 (racemic) , pKi: 3.51
